The values you see were collected from patent US5840684A.

# System: vancomycin-resistant enterococci
# assay.remarks: broth micro-dilution, mean geometric MIC
# Format: cell-based, Enterococcus faecium and Enterococcus faecalis
# condition.info: enterococci, 24-hour incubation
Listed here: items and their measured mean geometric MIC, Vancomycin Resistant Strains.
I only need the number, in µg/mL, no unit after it.

# compound, study.target, readout.units, value.measured
data = [
    ("CNC(CC(C)C)C(=O)NC1C(=O)NC(CC(N)=O)C(=O)NC2C(=O)NC3C(=O)NC(C(=O)NC(C(=O)O)c4cc(O)cc(O)c4-c4cc3ccc4O)C(OC3CC(C)(N)C(O)C(C)O3)c3ccc(c(Cl)c3)Oc3cc2cc(c3OC2OC(CO)C(O)C(O)C2OC2CC(C)(NCc3c4ccccc4c(Cl)c4ccccc34)C(O)C(C)O2)Oc2ccc(cc2Cl)C1O (centres unmarked) [Compound 18]", "vancomycin-resistant enterococci", "µg/mL", 6.7),
]

Now examine the next entry.
IN: Please give measured mean geometric MIC, Vancomycin Resistant Strains of the following entry: CNC(CC(C)C)C(=O)NC1C(=O)NC(CC(N)=O)C(=O)NC2C(=O)NC3C(=O)NC(C(=O)NC(C(=O)O)c4cc(O)cc(O)c4-c4cc3ccc4O)C(OC3CC(C)(N)C(O)C(C)O3)c3ccc(c(Cl)c3)Oc3cc2cc(c3OC2OC(CO)C(O)C(O)C2OC2CC(C)(NCc3ccc(OC(C)=O)c(OC)c3)C(O)C(C)O2)Oc2ccc(cc2Cl)C1O (centres unmarked) [Compound 99]
OUT: 72

----------
# System: Staphylococcus aureus SA1199B
# Assay type: cell-based
measured.property: MIC (µg/mL)
I only need the number, in µg/mL, no unit after it.

Take a look at these entries with their results.
# compound, MIC [µg/mL]
data = [
    ("CNC(CC(C)C)C(=O)NC1C(=O)NC(CC(N)=O)C(=O)NC2C(=O)NC3C(=O)NC(C(=O)NC(C(=O)O)c4cc(O)cc(O)c4-c4cc3ccc4O)C(OC3CC(C)(N)C(O)C(C)O3)c3ccc(c(Cl)c3)Oc3cc2cc(c3OC2OC(CO)C(O)C(O)C2OC2CC(C)(NCc3ccc(OCCOCCCl)cc3)C(O)C(C)O2)Oc2ccc(cc2Cl)C1O (stereo not drawn) [Compound 75]", 0.5),
    ("C=CCCCOc1ccc(CNC2(C)CC(OC3C(Oc4c5cc6cc4Oc4ccc(cc4Cl)C(OC4CC(C)(N)C(O)C(C)O4)C4NC(=O)C(NC(=O)C6NC(=O)C(CC(N)=O)NC(=O)C(NC(=O)C(CC(C)C)NC)C(O)c6ccc(c(Cl)c6)O5)c5ccc(O)c(c5)-c5c(O)cc(O)cc5C(C(=O)O)NC4=O)OC(CO)C(O)C3O)OC(C)C2O)cc1 (stereo not drawn) [Compound 226]", 1),
]

IN: Please look at CNC(CC(C)C)C(=O)NC1C(=O)NC(CC(N)=O)C(=O)NC2C(=O)NC3C(=O)NC(C(=O)NC(C(=O)O)c4cc(O)cc(O)c4-c4cc3ccc4O)C(OC3CC(C)(N)C(O)C(C)O3)c3ccc(c(Cl)c3)Oc3cc2cc(c3OC2OC(CO)C(O)C(O)C2OC2CC(C)(NCCCC3CCCC3)C(O)C(C)O2)Oc2ccc(cc2Cl)C1O (stereo not drawn) [Compound 208] and tell me its recorded MIC on Staphylococcus aureus SA1199B.
OUT: 0.5

----------
# Tested on: vancomycin-susceptible enterococci
# assay.remarks: broth micro-dilution, mean geometric MIC
# Assay type: cell-based, Enterococcus faecium and Enterococcus faecalis
# condition.info: enterococci, 24-hour incubation
Listed here: items and their measured mean geometric MIC, Vancomycin Sensitive Strains.
State the value, then name its unit.

# molecule, value.measured
data = [
    ("CNC(CC(C)C)C(=O)NC1C(=O)NC(CC(N)=O)C(=O)NC2C(=O)NC3C(=O)NC(C(=O)NC(C(=O)O)c4cc(O)cc(O)c4-c4cc3ccc4O)C(OC3CC(C)(N)C(O)C(C)O3)c3ccc(c(Cl)c3)Oc3cc2cc(c3OC2OC(CO)C(O)C(O)C2OC2CC(C)(NCC=Cc3ccccc3)C(O)C(C)O2)Oc2ccc(cc2Cl)C1O (stereo not drawn)", "0.42 µg/mL"),
    ("CN[C@H](CC(C)C)C(=O)N[C@H]1C(=O)N[C@@H](CC(N)=O)C(=O)N[C@H]2C(=O)N[C@H]3C(=O)N[C@H](C(=O)N[C@H](C(=O)O)c4cc(O)cc(O)c4-c4cc3ccc4O)[C@H](O[C@H]3C[C@](C)(N)[C@@H](O)[C@H](C)O3)c3ccc(c(Cl)c3)Oc3cc2cc(c3O[C@@H]2O[C@H](CO)[C@@H](O)[C@H](O)[C@H]2O[C@H]2C[C@](C)(NCc3ccc(Oc4ccc(Cl)cc4)c([N+](=O)[O-])c3)[C@@H](O)[C@H](C)O2)Oc2ccc(cc2Cl)[C@H]1O", "0.041 µg/mL"),
    ("CC(C)CC(C(=O)NC1C(=O)NC(CC(N)=O)C(=O)NC2C(=O)NC3C(=O)NC(C(=O)NC(C(=O)O)c4cc(O)cc(O)c4-c4cc3ccc4O)C(OC3CC(C)(N)C(O)C(C)O3)c3ccc(c(Cl)c3)Oc3cc2cc(c3OC2OC(CO)C(O)C(O)C2OC2CC(C)(NCc3ccc(Cc4ccccc4)cc3)C(O)C(C)O2)Oc2ccc(cc2Cl)C1O)N(C)Cc1ccc(Cc2ccccc2)cc1 (stereo not drawn)", "0.66 µg/mL"),
    ("CC(C)CC(C(=O)NC1C(=O)NC(CC(N)=O)C(=O)NC2C(=O)NC3C(=O)NC(C(=O)NC(C(=O)O)c4cc(O)cc(O)c4-c4cc3ccc4O)C(OC3CC(C)(N)C(O)C(C)O3)c3ccc(c(Cl)c3)Oc3cc2cc(c3OC2OC(CO)C(O)C(O)C2OC2CC(C)(NCC3CC=CCC3)C(O)C(C)O2)Oc2ccc(cc2Cl)C1O)N(C)CC1CC=CCC1 (stereo not drawn)", "1.1 µg/mL"),
    ("CNC(CC(C)C)C(=O)NC1C(=O)NC(CC(N)=O)C(=O)NC2C(=O)NC3C(=O)NC(C(=O)NC(C(=O)O)c4cc(O)cc(O)c4-c4cc3ccc4O)C(OC3CC(C)(N)C(O)C(C)O3)c3ccc(c(Cl)c3)Oc3cc2cc(c3OC2OC(CO)C(O)C(O)C2OC2CC(C)(NCc3ccc(OC(=O)C4CCCCC4)cc3)C(O)C(C)O2)Oc2ccc(cc2Cl)C1O (stereo not drawn)", "0.054 µg/mL"),
]

Now examine the next entry.
IN: Please give measured mean geometric MIC, Vancomycin Sensitive Strains of the following entry: CNC(CC(C)C)C(=O)NC1C(=O)NC(CC(N)=O)C(=O)NC2C(=O)NC3C(=O)NC(C(=O)NC(C(=O)O)c4cc(O)cc(O)c4-c4cc3ccc4O)C(OC3CC(C)(N)C(O)C(C)O3)c3ccc(c(Cl)c3)Oc3cc2cc(c3OC2OC(CO)C(O)C(O)C2OC2CC(C)(NCc3cccc(Oc4ccccc4)c3)C(O)C(C)O2)Oc2ccc(cc2Cl)C1O (stereo not drawn)
OUT: 0.083 µg/mL

----------
# Test system: vancomycin-susceptible enterococci
# assay.remarks: broth micro-dilution, mean geometric MIC
# Assay type: cell-based, Enterococcus faecium and Enterococcus faecalis
# condition.info: enterococci, 24-hour incubation
Listed here: items and their measured mean geometric MIC, Vancomycin Sensitive Strains.
I only need the number, in µg/mL, no unit after it.

Take a look at these entries with their results.
# compound, value.measured
data = [
    ("CNC(CC(C)C)C(=O)NC1C(=O)NC(CC(N)=O)C(=O)NC2C(=O)NC3C(=O)NC(C(=O)NC(C(=O)O)c4cc(O)cc(O)c4-c4cc3ccc4O)C(OC3CC(C)(N)C(O)C(C)O3)c3ccc(c(Cl)c3)Oc3cc2cc(c3OC2OC(CO)C(O)C(O)C2OC2CC(C)(NCCCCCCCCCCCCc3ccccc3)C(O)C(C)O2)Oc2ccc(cc2Cl)C1O (centres unmarked)", 2),
    ("CNC(CC(C)C)C(=O)NC1C(=O)NC(CC(N)=O)C(=O)NC2C(=O)NC3C(=O)NC(C(=O)NC(C(=O)O)c4cc(O)cc(O)c4-c4cc3ccc4O)C(OC3CC(C)(N)C(O)C(C)O3)c3ccc(c(Cl)c3)Oc3cc2cc(c3OC2OC(CO)C(O)C(O)C2OC2CC(C)(NCc3ccc(OCc4ccccc4)cc3)C(O)C(C)O2)Oc2ccc(cc2Cl)C1O (centres unmarked)", 0.072),
    ("CC#CCCCCCCCCCCNC1(C)CC(OC2C(Oc3c4cc5cc3Oc3ccc(cc3Cl)C(OC3CC(C)(N)C(O)C(C)O3)C3NC(=O)C(NC(=O)C5NC(=O)C(CC(N)=O)NC(=O)C(NC(=O)C(CC(C)C)NC)C(O)c5ccc(c(Cl)c5)O4)c4ccc(O)c(c4)-c4c(O)cc(O)cc4C(C(=O)O)NC3=O)OC(CO)C(O)C2O)OC(C)C1O (centres unmarked)", 0.036),
    ("CNC(CC(C)C)C(=O)NC1C(=O)NC(CC(N)=O)C(=O)NC2C(=O)NC3C(=O)NC(C(=O)NC(C(=O)O)c4cc(O)cc(O)c4-c4cc3ccc4O)C(OC3CC(C)(N)C(O)C(C)O3)c3ccc(c(Cl)c3)Oc3cc2cc(c3OC2OC(CO)C(O)C(O)C2OC2CC(C)(NCc3cc4ccccc4s3)C(O)C(C)O2)Oc2ccc(cc2Cl)C1O (centres unmarked)", 0.22),
    ("CNC(CC(C)C)C(=O)NC1C(=O)NC(CC(N)=O)C(=O)NC2C(=O)NC3C(=O)NC(C(=O)NC(C(=O)O)c4cc(O)cc(O)c4-c4cc3ccc4O)C(OC3CC(C)(N)C(O)C(C)O3)c3ccc(c(Cl)c3)Oc3cc2cc(c3OC2OC(CO)C(O)C(O)C2OC2CC(C)(NCc3ccc(OCc4ccc([N+](=O)[O-])cc4)cc3)C(O)C(C)O2)Oc2ccc(cc2Cl)C1O (centres unmarked)", 0.028),
    ("CNC(CC(C)C)C(=O)NC1C(=O)NC(CC(N)=O)C(=O)NC2C(=O)NC3C(=O)NC(C(=O)NC(C(=O)O)c4cc(O)cc(O)c4-c4cc3ccc4O)C(OC3CC(C)(N)C(O)C(C)O3)c3ccc(c(Cl)c3)Oc3cc2cc(c3OC2OC(CO)C(O)C(O)C2OC2CC(C)(NCc3cccc(OC(=O)C4CCCCC4)c3)C(O)C(C)O2)Oc2ccc(cc2Cl)C1O (centres unmarked)", 0.062),
    ("CC(C)CC(C(=O)NC1C(=O)NC(CC(N)=O)C(=O)NC2C(=O)NC3C(=O)NC(C(=O)NC(C(=O)O)c4cc(O)cc(O)c4-c4cc3ccc4O)C(OC3CC(C)(NCc4ccc(-c5ccccc5)cc4)C(O)C(C)O3)c3ccc(c(Cl)c3)Oc3cc2cc(c3OC2OC(CO)C(O)C(O)C2OC2CC(C)(NCc3ccc(-c4ccccc4)cc3)C(O)C(C)O2)Oc2ccc(cc2Cl)C1O)N(C)Cc1ccc(-c2ccccc2)cc1 (centres unmarked)", 3.5),
    ("CNC(CC(C)C)C(=O)NC1C(=O)NC(CC(N)=O)C(=O)NC2C(=O)NC3C(=O)NC(C(=O)NC(C(=O)O)c4cc(O)cc(O)c4-c4cc3ccc4O)C(OC3CC(C)(NCc4ccc(C(F)(F)F)cc4)C(O)C(C)O3)c3ccc(c(Cl)c3)Oc3cc2cc(c3OC2OC(CO)C(O)C(O)C2OC2CC(C)(NCc3ccc(C(F)(F)F)cc3)C(O)C(C)O2)Oc2ccc(cc2Cl)C1O (centres unmarked)", 0.072),
]

IN: Please give measured mean geometric MIC, Vancomycin Sensitive Strains of the following entry: CNC(CC(C)C)C(=O)NC1C(=O)NC(CC(N)=O)C(=O)NC2C(=O)NC3C(=O)NC(C(=O)NC(C(=O)O)c4cc(O)cc(O)c4-c4cc3ccc4O)C(OC3CC(C)(N)C(O)C(C)O3)c3ccc(c(Cl)c3)Oc3cc2cc(c3OC2OC(CO)C(O)C(O)C2OC2CC(C)(NCc3cccc(Oc4cccc(C(F)(F)F)c4)c3)C(O)C(C)O2)Oc2ccc(cc2Cl)C1O (centres unmarked) [Compound 111]
OUT: 0.031

IN: Please give measured mean geometric MIC, Vancomycin Sensitive Strains of the following entry: CNC(CC(C)C)C(=O)NC1C(=O)NC(CC(N)=O)C(=O)NC2C(=O)NC3C(=O)NC(C(=O)NC(C(=O)O)c4cc(O)cc(O)c4-c4cc3ccc4O)C(OC3CC(C)(N)C(O)C(C)O3)c3ccc(c(Cl)c3)Oc3cc2cc(c3OC2OC(CO)C(O)C(O)C2OC2CC(C)(NCc3ccc(-c4ccccc4)cc3)C(O)C(C)O2)Oc2ccc(cc2Cl)C1O (centres unmarked) [Compound 2, p-phenylbenzyl·A82846B]
OUT: 0.00038

IN: Please give measured mean geometric MIC, Vancomycin Sensitive Strains of the following entry: CNC(CC(C)C)C(=O)NC1C(=O)NC(CC(N)=O)C(=O)NC2C(=O)NC3C(=O)NC(C(=O)NC(C(=O)O)c4cc(O)cc(O)c4-c4cc3ccc4O)C(OC3CC(C)(N)C(O)C(C)O3)c3ccc(c(Cl)c3)Oc3cc2cc(c3OC2OC(CO)C(O)C(O)C2OC2CC(C)(NCc3ccc(Nc4ccccc4)cc3)C(O)C(C)O2)Oc2ccc(cc2Cl)C1O (centres unmarked)
OUT: 0.22
